compounds and their reported CC50
test: in vitro
experimental-parameters: mouse
quantity-name: CC50

| compound | result |
| --- | --- |
| NNC(=O)c1ccncc1 | > 150 µM |
| CO[C@H]1/C=C/O[C@@]2(C)Oc3c(C)c(O)c4c(O)c(c(/C=N/N5CCN(C)CC5)c(O)c4c3C2=O)NC(=O)/C(C)=C\C=C\[C@H](C)[C@H](O)[C@@H](C)[C@@H](O)[C@@H](C)[C@H](OC(C)=O)[C@@H]1C | 24 µM |
| CCc1cc(C(N)=S)ccn1 [Ethionamide] | 120 µM |
